Biological target: P. falciparum apicoplast DNA polymerase (Pf-apPOL) (Plasmodium falciparum)
Assay: Fluorescence-based high-throughput DNA polymerase assay (molecular beacon), primary screen and dose-response
Type: biochemical
Conditions: DRC-2; 40'; concentration 10
Exercise: for every item that follows, state its recorded % inhibition Apol 40'.
Respond numerically; units are % and should not be typed.

Fill in % inhibition Apol 40' for record CCN1C(=O)C(=Cc2cccc(OC)c2O)SC1=S
9

Please look at this molecule and report its % inhibition Apol 40': O=C(Cc1cc(=O)[nH]c(SCc2ccccc2)n1)Nc1ccc2c(c1)OCO2
30

Identify % inhibition Apol 40' associated with the molecule COc1cc(Cl)c(C)cc1NC(=O)Cn1ccc2c(=O)[nH]ccc21
46

Fill in reported % inhibition Apol 40' for this entry: O=C1C(=Cc2ccccc2O)Oc2ccc(O)cc21
18

Report % inhibition Apol 40', nothing else, for this molecule: O=c1cc(CN2CCCCC2)c2cc3c(cc2o1)OCO3
26

Provide % inhibition Apol 40' value for the following molecule: COc1ccc(-c2n[nH]cc2Oc2ccc(Cl)cc2)c(O)c1
46

Name the recorded % inhibition Apol 40' of the molecule listed here: COc1ccc(NC(=O)Cn2ccc3c(=O)[nH]ccc32)cc1Cl [Molecule 10, COc1ccc(cc1Cl)NC(=O)Cn1ccc2c1cc[nH]c2=O]
64

Specify % inhibition Apol 40' for O=C1Nc2ccc(I)cc2C1=Cc1cc(Br)c(O)c(Br)c1 and stop.
48

Look up and state reported % inhibition Apol 40' for O=C(O)CCS(=O)(=O)c1ccc(-c2ccc(S(=O)(=O)CCC(=O)O)cc2)cc1
31

Tell us which % inhibition Apol 40' value is on record for Cl.NC(CO)C(=O)NNCc1ccc(O)c(O)c1O (centres unmarked)
38

Please indicate % inhibition Apol 40' recorded for O=C1c2ccccc2C(=O)N1Oc1ccc([N+](=O)[O-])c([N+](=O)[O-])c1
18

For the molecule O=C1CCCC2=C1C(c1ccccn1)C1=C(CCCC1=O)O2 , give its measured % inhibition Apol 40' value.
15

Give a short answer stating reported % inhibition Apol 40' for Cc1ccc(C)c(CSc2nc(C3CCCCC3)c(C#N)c(=O)[nH]2)c1 .
51

Give % inhibition Apol 40' for the following molecule: CC1(C)CC(=O)C2=C(C1)OC1=C(C(=O)CC(C)(C)C1)C2c1ccc(O)cc1
23

Give me measured % inhibition Apol 40', please, for this molecule: CC(=O)c1cc2c(N)c(/C(N)=N/C#N)sc2nc1C
19

Please report the measured % inhibition Apol 40' for O=C(Cn1ccc2c(=O)[nH]ccc21)Nc1ccc(Cl)cc1 [Molecule 36, O=C(Cn1ccc2c1cc[nH]c2=O)Nc1ccc(cc1)Cl]
57

Return % inhibition Apol 40' for the following molecule: Oc1cccc2ccc(/C=C/c3ccc4c(c3)OCO4)nc12
47

Query % inhibition Apol 40' for Cc1cc(C)nc(Nc2nc(CC(=O)Nc3nc(-c4ccco4)cs3)cs2)n1
41

# return recorded % inhibition Apol 40' for entry N#Cc1c(O)nc(N2CCCCC2)nc1-c1ccc2c(c1)OCO2
33

Please give measured % inhibition Apol 40' of the following entry: Cc1cc(C)cc(-n2nc3c(c2NC(=O)c2ccco2)CSC3)c1
41

Annotate the molecule O=C(O)c1ccc(-c2nc3cc(-c4ccc5nc(-c6ccc(C(=O)O)cc6)[nH]c5c4)ccc3[nH]2)cc1 with its measured % inhibition Apol 40'.
32

Answer with the recorded % inhibition Apol 40' for the molecule listed here: Cc1ccc2c(C(=O)NCCc3cccnc3)cc(NC(=O)C(C)C)cc2n1
24

Indicate its recorded % inhibition Apol 40'; the molecule in question is COc1ccc2c(c1)C(c1ccccc1OC)CC(=O)O2 (centres unmarked)
27

Given the molecule COc1ccc(C=C2Oc3c(ccc4c3CN(c3ccc5c(c3)OCO5)CO4)C2=O)cc1OC , write its reported % inhibition Apol 40'.
30

Provide measured % inhibition Apol 40' value, entry: O=C(CSc1nnc(-c2ccco2)[nH]1)c1ccc(Cl)cc1
7

Give the value of % inhibition Apol 40' reported for the following: O=C(Cn1ccc2c(=O)[nH]ccc21)Nc1cc(F)ccc1F [Molecule 42, O=C(Cn1ccc2c1cc[nH]c2=O)Nc1cc(F)ccc1F]
36

Please list % inhibition Apol 40' recorded for the molecule Cc1nc(/N=N/c2ccc(C(=O)[O-])cc2)c(COP(=O)([O-])[O-])c(C=O)c1O.[Na+].[Na+].[Na+]
51

Find the measured % inhibition Apol 40' of CCOc1cccc2cc(C(=O)Nc3nnc(-c4ccno4)o3)oc12 and report it.
50

Fill in % inhibition Apol 40' for record Cc1cc(C)c2c(O)nc(SCC(=O)c3ccc(O)c(O)c3)nc2n1
63

###

Target: P. falciparum apicoplast DNA polymerase (Pf-apPOL) (Plasmodium falciparum, UniProt Q8ILY1)
Sequence (Q8ILY1 entry or part of it): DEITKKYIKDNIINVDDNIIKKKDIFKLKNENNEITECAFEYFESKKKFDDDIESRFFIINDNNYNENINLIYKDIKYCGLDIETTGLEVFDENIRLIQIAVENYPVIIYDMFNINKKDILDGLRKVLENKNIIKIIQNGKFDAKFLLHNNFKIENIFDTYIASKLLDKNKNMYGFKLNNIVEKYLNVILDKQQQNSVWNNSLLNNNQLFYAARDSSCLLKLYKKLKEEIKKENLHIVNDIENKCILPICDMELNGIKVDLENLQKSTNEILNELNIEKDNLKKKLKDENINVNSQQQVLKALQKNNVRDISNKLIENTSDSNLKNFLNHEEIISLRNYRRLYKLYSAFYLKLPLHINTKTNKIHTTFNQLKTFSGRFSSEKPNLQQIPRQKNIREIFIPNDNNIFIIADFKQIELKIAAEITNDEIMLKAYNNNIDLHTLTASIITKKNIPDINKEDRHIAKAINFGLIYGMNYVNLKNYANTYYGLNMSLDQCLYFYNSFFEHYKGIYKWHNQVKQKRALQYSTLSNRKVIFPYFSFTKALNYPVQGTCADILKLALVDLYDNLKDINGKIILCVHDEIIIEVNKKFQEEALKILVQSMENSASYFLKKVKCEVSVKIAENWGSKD
Assay: Fluorescence-based high-throughput DNA polymerase assay (molecular beacon), primary screen and dose-response
Assay type: biochemical
Details: DRC-2, 5', concentration 20
Assay metric: % inhibition Apo pol 5'
Field: value (include unit after the number)

State recorded % inhibition Apo pol 5' with P. falciparum apicoplast DNA polymerase (Pf-apPOL) (Plasmodium falciparum, UniProt Q8ILY1), entry CO/N=C(\C(=O)N[C@@H]1C(=O)N2C(C(=O)[O-])=C(CSc3nc(=O)c([O-])nn3C)CSC12)c1csc(N)n1.[Na+].[Na+] (stereo partly drawn) , no comment.
30%

Under P. falciparum apicoplast DNA polymerase (Pf-apPOL) (Plasmodium falciparum, UniProt Q8ILY1): report % inhibition Apo pol 5' of COc1ccc2c(c1)CCc1c-2nc2ccc(Br)cc2c1C(=O)O .
40%

Enter % inhibition Apo pol 5' (test system P. falciparum apicoplast DNA polymerase (Pf-apPOL) (Plasmodium falciparum, UniProt Q8ILY1)) for O=C(Nc1nnc(-c2ccno2)o1)c1ccc2ncsc2c1
39%

Using P. falciparum apicoplast DNA polymerase (Pf-apPOL) (Plasmodium falciparum, UniProt Q8ILY1) as the test system, report measured % inhibition Apo pol 5' of O=[N+]([O-])c1cc2c(cc1CN1CCCCCC1)OCO2 .
39%

State, for P. falciparum apicoplast DNA polymerase (Pf-apPOL) (Plasmodium falciparum, UniProt Q8ILY1), measured % inhibition Apo pol 5' of the compound listed here: O=C(Nc1nnc(-c2cccs2)o1)c1ccc([N+](=O)[O-])o1
41%

# lookup: P. falciparum apicoplast DNA polymerase (Pf-apPOL) (Plasmodium falciparum, UniProt Q8ILY1) % inhibition Apo pol 5', key = CCOc1ccccc1-c1nc(-c2ccc(=O)[nH]c2)no1 [Molecule 76, CCOc1ccccc1c1onc(n1)c1ccc(=O)[nH]c1]
30%

Fill in: % inhibition Apo pol 5' on P. falciparum apicoplast DNA polymerase (Pf-apPOL) (Plasmodium falciparum, UniProt Q8ILY1), entry CC1=NNC(=O)C1Oc1ccc(Cl)cc1Cl (stereo not drawn)
32%

// fetch % inhibition Apo pol 5' for CSC(C)C(=O)C=CN(C)C (stereo not drawn) ; system: P. falciparum apicoplast DNA polymerase (Pf-apPOL) (Plasmodium falciparum, UniProt Q8ILY1)
41%

Please indicate recorded % inhibition Apo pol 5' of Cc1ncc(CSc2nc(C(C)(C)C)cs2)c(CO)c1O measured with P. falciparum apicoplast DNA polymerase (Pf-apPOL) (Plasmodium falciparum, UniProt Q8ILY1).
37%

Report measured % inhibition Apo pol 5' on P. falciparum apicoplast DNA polymerase (Pf-apPOL) (Plasmodium falciparum, UniProt Q8ILY1); entry: COc1cc(/C=C2\S/C(=N/C(C)=O)NC2=O)cc(Br)c1OCC(=O)O
29%

Would you please give the reported % inhibition Apo pol 5' of O=C(O)C(=O)Nc1nc(-c2ccc3c(c2)OCCO3)cs1 with P. falciparum apicoplast DNA polymerase (Pf-apPOL) (Plasmodium falciparum, UniProt Q8ILY1)?
30%

Provide measured % inhibition Apo pol 5' on P. falciparum apicoplast DNA polymerase (Pf-apPOL) (Plasmodium falciparum, UniProt Q8ILY1) for O=C(O)c1c(F)c(F)c(-c2c(F)c(F)c(C(=O)O)c(F)c2F)c(F)c1F please.
29%

###

Target: P. falciparum apicoplast DNA polymerase (Pf-apPOL) (Plasmodium falciparum)
Experiment: Fluorescence-based high-throughput DNA polymerase assay (molecular beacon), primary screen and dose-response
Assay type: biochemical
Conditions: DRC-1; 90'; concentration 20
Assay metric: % inhibition Apol 90'

State its % inhibition Apol 90': O=C(NC(C(Cl)Cl)S(=O)(=O)c1ccccc1)c1ccccc1 (stereo not drawn) [KU0045239]
58.936%

Output % inhibition Apol 90' of O=C(O)CCS(=O)(=O)c1ccc(-c2ccc(S(=O)(=O)CCC(=O)O)cc2)cc1 [Molecule 32]
59.5248%

Given Cc1nc(/N=N/c2ccc(C(=O)[O-])cc2)c(COP(=O)([O-])[O-])c(C=O)c1O.[Na+].[Na+].[Na+] [KU0261395] , respond with its % inhibition Apol 90'.
58.7781%

###

Molecular target: UniProt:Q8ILY1
Experiment: Fluorescence-based high-throughput DNA polymerase assay (molecular beacon), primary screen and dose-response
Type: biochemical
Conditions: DRC-2; 90'; concentration 80
Assay metric: % inhibition ApPOL 90' (%)
All answers are understood in %, so give the number only.

Answer with the recorded % inhibition ApPOL 90' for the molecule listed here: Cl.NC(CO)C(=O)NNCc1ccc(O)c(O)c1O (centres unmarked)
68

Provide measured % inhibition ApPOL 90' value, entry: O=[N+]([O-])/C=C/c1ccc(-c2ccc(Br)cc2)o1
59

Answer with the recorded % inhibition ApPOL 90' for the molecule listed here: Cc1ccccc1C(=O)N1CCc2c(nc3cc(-c4ccccc4)[nH]n3c2=O)C1
59

Let me know recorded % inhibition ApPOL 90' for O=C(Cn1ccc2c(=O)[nH]ccc21)Nc1cc(F)ccc1F [Molecule 42, O=C(Cn1ccc2c1cc[nH]c2=O)Nc1cc(F)ccc1F] , thanks.
59

Name the recorded % inhibition ApPOL 90' of the molecule listed here: O=c1[nH]c2ccc(Br)cc2c(-c2ccccc2)c1C1=NNC(c2ccco2)C1 (centres unmarked)
72

For the molecule O=c1cc(CN2CCCCC2)c2cc3c(cc2o1)OCO3 , report % inhibition ApPOL 90'.
68

State its % inhibition ApPOL 90' for this molecule: OC(C#Cc1ccccc1)c1ccco1 (centres unmarked)
60

Indicate the recorded % inhibition ApPOL 90' value for this molecule: CCOc1cccc2cc(C(=O)Nc3nnc(-c4ccno4)o3)oc12
70

Every entry's value here was drawn from paper PMC9090415.
